# Assayed Target: ErbB-4 receptor-Ig fusion (human) (UniProt Q15303)
# Procedure Details: phage ELISA, soluble ErbB-4-Ig as competitor
Measured Attribute: EC50 (nM)
Numbers only here, please. The scale is nM.

QUERY: So what does the record say about EC50 for HRG8 (wild-type HRG-β1 EGF displayed on phage) (ligand) SHLVKCAEKEKTFCVNGGECFMVKDLSNPSRYLCKCPNEFTGDRCQNYVMAS ?
RESULT: 163

QUERY: Param item = HRG2 (HRG-β1 177-244 displayed on phage) (ligand) SHLVKCAEKEKTFCVNGGECFMVKDLSNPSRYLCKCPNEFTGDRCQNYVMASFYKHLGIEFMEAEELY ; retrieve measured EC50.
RESULT: 19
